Provenance of the data: patent US12516039B2

# IC50 per record follows
- ASSAYED_SYSTEM: GST-tagged truncated human mutant G2019S LRRK2 (Homo sapiens, UniProt Q5S007, G2019S)
- Construct: GST-tagged truncated human mutant G2019S LRRK2; purchased Life Technologies Corporation (Carlsbad, CA)
- Sequence (Q5S007 970-2527 G2019S limits assumed): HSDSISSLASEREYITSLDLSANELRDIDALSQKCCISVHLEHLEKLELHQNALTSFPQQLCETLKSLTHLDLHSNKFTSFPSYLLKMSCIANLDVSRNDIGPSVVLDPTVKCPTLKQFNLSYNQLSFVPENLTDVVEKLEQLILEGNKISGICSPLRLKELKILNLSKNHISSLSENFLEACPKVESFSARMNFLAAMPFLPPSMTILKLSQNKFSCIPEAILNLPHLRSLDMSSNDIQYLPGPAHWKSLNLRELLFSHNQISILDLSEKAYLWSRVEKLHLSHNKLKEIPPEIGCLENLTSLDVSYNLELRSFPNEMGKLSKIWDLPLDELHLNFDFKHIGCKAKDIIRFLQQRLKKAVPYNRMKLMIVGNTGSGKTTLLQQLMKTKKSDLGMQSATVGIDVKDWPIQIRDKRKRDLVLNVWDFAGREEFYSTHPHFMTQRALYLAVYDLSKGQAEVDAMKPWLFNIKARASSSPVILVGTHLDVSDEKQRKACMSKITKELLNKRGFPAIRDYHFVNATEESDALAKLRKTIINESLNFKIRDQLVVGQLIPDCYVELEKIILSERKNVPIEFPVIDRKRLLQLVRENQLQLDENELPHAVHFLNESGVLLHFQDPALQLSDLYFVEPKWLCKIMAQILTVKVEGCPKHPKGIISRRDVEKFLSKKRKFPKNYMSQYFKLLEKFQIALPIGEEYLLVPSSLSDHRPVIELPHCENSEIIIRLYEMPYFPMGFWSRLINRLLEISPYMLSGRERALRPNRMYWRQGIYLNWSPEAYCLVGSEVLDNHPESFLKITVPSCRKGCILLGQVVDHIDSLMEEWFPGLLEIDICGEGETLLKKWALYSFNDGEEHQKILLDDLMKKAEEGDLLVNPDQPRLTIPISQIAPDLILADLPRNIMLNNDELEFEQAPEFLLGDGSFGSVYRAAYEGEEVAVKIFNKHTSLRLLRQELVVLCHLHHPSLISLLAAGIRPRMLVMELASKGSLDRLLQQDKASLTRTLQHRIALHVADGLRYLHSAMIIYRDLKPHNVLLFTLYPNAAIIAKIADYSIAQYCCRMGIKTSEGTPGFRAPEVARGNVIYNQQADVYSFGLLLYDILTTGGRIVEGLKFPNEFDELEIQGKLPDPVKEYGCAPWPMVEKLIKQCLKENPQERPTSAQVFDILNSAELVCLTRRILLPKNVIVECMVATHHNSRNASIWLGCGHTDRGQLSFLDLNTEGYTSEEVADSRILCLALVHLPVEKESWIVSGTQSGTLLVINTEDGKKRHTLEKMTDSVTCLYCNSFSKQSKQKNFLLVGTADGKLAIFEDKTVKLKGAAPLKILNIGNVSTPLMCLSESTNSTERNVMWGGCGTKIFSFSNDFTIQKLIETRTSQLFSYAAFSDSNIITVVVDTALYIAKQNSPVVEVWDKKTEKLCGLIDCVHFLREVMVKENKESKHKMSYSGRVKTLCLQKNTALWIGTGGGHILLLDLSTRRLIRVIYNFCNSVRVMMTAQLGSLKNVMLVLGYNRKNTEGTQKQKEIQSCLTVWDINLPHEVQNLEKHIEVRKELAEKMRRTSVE
- TEST_DESCRIPTION: LRRK2 G2019S Km ATP LanthaScreen assay
- Type: biochemical
- TEST_CONTEXT: 134 μM ATP (Km ATP), LRRKtide substrate, mean of several tests, read-out: LRRK2 pIC50 (converted)
PARAMETER_MEASURED: IC50 (nM)

| COMPOUND | ASSAYED_SYSTEM | PARAMETER_MEASURED | DISPLAY_UNIT | RECORDED_RESULT |
| --- | --- | --- | --- | --- |
| COC1COCC1(C)N1CCN(c2cc3cc(NC(=O)C4CC45CCOCC5)ncc3cc2Cl)CC1 (single isomer, unassigned) [Ex-5.6] | GST-tagged truncated human mutant G2019S LRRK2 (Homo sapiens, UniProt Q5S007, G2019S) | IC50 | nM | 316 |
| CC1(C)OCCC1C(=O)Nc1cc2cc(N3CCN(C4(C)COCC4O)CC3)c(Cl)cc2cn1 (single isomer, unassigned) [Ex-1.23] | GST-tagged truncated human mutant G2019S LRRK2 (Homo sapiens, UniProt Q5S007, G2019S) | IC50 | nM | 7.41 |
| O=C(Nc1cc2cc(N3CCN(C4COCC4O)CC3)c(Cl)cc2cn1)C1CC12CCOCC2 (single isomer, unassigned) [Ex-2.8] | GST-tagged truncated human mutant G2019S LRRK2 (Homo sapiens, UniProt Q5S007, G2019S) | IC50 | nM | 24 |
| CC1(N2CCN(c3cc4cc(NC(=O)C5CCC5c5ccccn5)ncc4cc3Cl)CC2)COCC1O (single isomer, unassigned) [Ex-11.5] | GST-tagged truncated human mutant G2019S LRRK2 (Homo sapiens, UniProt Q5S007, G2019S) | IC50 | nM | 0.0813 |
| CC1(N2CCN(c3cc4cc(NC(=O)C5CC56CCCOC6)ncc4cc3Cl)CC2)COCC1O (single isomer, unassigned) [Ex-1.11] | GST-tagged truncated human mutant G2019S LRRK2 (Homo sapiens, UniProt Q5S007, G2019S) | IC50 | nM | 1.7 |
| CC1(N2CCN(c3cc4cc(NC(=O)C5CC56CCOC6)ncc4cc3Cl)CC2)COCC1O (single isomer, unassigned) [Ex-2.9] | GST-tagged truncated human mutant G2019S LRRK2 (Homo sapiens, UniProt Q5S007, G2019S) | IC50 | nM | 0.195 |
